Just for reference, patent US9593122B2 is where these values come from.

System: Rice plants
method_summary: Paddy herbicidal activity test, phytotoxicity to transplanted rice
Type: in vivo
stated_conditions: 5g a.i./10a; rice transplanted at 2.0 leaf stage, 30 days
Listed here: items and their measured Rice plants phytotoxicity (growth inhibition level).
assay_metric: Rice plants phytotoxicity (growth inhibition level)

{"columns": ["compound", "observed_measurement"],
 "data": [
  ["C=CCNc1c(C#N)cnn1-c1nn2c(c1Cl)CCCC2 [Control agent 4.59, reference compound]", "2 (2: 20% to less than 30%)"],
  ["C#CCN(C(=O)C(F)(F)F)c1c(C#N)cnn1-c1nn2c(c1Cl)CCCC2 [Control agent 4.239, reference compound]", "1 (1: 10% to less than 20%)"],
  ["C#CCNc1c(C#N)cnn1-c1nn2c(c1Cl)CCCC2 [Control agent 4.85, 4.156, reference compound]", "2 (2: 20% to less than 30%)"],
  ["C=CCN(CC)c1c(C#N)cnn1-c1nn2c(c1Cl)CCCC2 [Control agent 4.75, reference compound]", "1 (1: 10% to less than 20%)"]
]}
